- target_or_system: 5-hydroxytryptamine receptor 2A (Homo sapiens)
- Sequence (P28223 whole entry): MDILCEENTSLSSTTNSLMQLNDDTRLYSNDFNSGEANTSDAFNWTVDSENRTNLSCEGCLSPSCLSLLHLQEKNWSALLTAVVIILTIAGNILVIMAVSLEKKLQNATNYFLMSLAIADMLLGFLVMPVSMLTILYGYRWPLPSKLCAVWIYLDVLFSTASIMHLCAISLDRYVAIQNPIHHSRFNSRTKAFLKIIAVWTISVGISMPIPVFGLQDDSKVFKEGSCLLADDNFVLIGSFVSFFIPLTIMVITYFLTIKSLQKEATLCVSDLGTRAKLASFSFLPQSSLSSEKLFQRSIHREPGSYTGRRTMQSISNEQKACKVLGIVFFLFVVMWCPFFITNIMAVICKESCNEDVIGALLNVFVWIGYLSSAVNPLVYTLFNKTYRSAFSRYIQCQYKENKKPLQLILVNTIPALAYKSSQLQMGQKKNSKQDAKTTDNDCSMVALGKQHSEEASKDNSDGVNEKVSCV
- protocol_notes: Binding affinity to 5-HT2A receptor (unknown origin) assessed as inhibition constant by radioligand binding assay
pKi: −log10 of the molar value.
observed_property: pKi

Prompt: What pKi value was documented for this molecule, CC(C)N(CCc1c(Br)[nH]c2ccccc12)C(C)C ?
Response: < 5.00

Source: ChEMBL document CHEMBL6109170
